- Assay System: human metabotropic Glutamate 4 receptor (mGluR4) (Homo sapiens (Human))
- Sequence (Q14833 33-912): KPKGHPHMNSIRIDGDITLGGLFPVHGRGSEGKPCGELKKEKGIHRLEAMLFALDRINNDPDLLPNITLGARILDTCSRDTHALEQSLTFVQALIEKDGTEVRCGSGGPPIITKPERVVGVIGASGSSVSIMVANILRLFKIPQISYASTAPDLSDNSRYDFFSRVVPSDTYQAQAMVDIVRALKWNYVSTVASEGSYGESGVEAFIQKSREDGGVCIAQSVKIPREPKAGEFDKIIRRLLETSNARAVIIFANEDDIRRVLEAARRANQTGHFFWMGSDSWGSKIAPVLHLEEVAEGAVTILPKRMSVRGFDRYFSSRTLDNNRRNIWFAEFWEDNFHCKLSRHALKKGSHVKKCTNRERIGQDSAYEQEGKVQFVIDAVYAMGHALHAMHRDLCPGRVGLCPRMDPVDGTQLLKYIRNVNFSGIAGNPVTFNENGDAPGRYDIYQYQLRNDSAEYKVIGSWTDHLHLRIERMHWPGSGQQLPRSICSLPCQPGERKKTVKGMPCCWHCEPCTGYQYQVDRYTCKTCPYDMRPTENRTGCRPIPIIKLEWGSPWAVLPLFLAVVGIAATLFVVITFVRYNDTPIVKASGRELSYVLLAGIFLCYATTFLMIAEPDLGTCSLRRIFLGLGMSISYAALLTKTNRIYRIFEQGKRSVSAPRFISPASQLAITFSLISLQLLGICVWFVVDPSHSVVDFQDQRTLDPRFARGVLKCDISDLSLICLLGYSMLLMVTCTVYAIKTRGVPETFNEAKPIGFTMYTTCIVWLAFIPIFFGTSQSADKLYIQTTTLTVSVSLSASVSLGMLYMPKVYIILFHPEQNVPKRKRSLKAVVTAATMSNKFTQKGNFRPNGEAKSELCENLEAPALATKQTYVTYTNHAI
- Assay Text: Assay A: in vitro testing of mGluR4 potency (glutamate-induced cAMP lowering, HTRF cAMP)
- Conditions: HEK293 cells overexpressing human mGluR4; 10 uM L-glutamic acid, 1 uM forskolin; compounds of the present invention
Label criterion met when IC50 < 4 nM; otherwise criterion not met.

1) Cc1cnc(C(=O)N[C@@H](CC2CC2)c2nc3cc(F)ccc3n2CCOC(F)F)cn1 [Example 95] ... criterion not met

Now turn to the next molecule.
Prompt line: I'd appreciate it if you could check whether Cc1cnc(C(=O)N[C@H](c2nc3cc(Cl)ccc3n2C)C2CC2)cn1 [Example 47] has IC50 smaller than 4 nM.
Response line: criterion not met

----------
- Assay System: human metabotropic Glutamate 4 receptor (mGluR4) (Homo sapiens (Human))
- Assay Text: Assay A: in vitro testing of mGluR4 potency (glutamate-induced cAMP lowering, HTRF cAMP)
- Conditions: HEK293 cells overexpressing human mGluR4; 10 uM L-glutamic acid, 1 uM forskolin; compounds of the present invention
Reported pIC50 values for a set of compounds
pIC50 (log units): -log10 of the concentration in mol/L.

Recorded results for 3 compounds are shown here.
1) Cc1cnc(C(=O)N[C@H](c2nc3cc(OC(F)(F)F)ccc3n2C)C2CC2)cn1 [Example 74] ... 8.22
2) CO[C@H](C)[C@H](NC(=O)c1cnc(C)cn1)c1nc2cc(OC(F)(F)F)ccc2n1C(C)C [Example 123] ... 8.52
3) CCn1c([C@@H](NC(=O)c2cnc(C(F)F)cn2)C(C)(C)O)nc2cc(F)ccc21 [Example 65] ... 7.80

Memo: CCn1c([C@@H](NC(=O)c2cnc(C(F)F)cn2)C(C)(C)O)nc2cc(F)c(F)cc21 [Example 57] , reported pIC50: 7.72

Quick note, pIC50 for Cc1cnc(C(=O)N[C@H](c2nc3cc(Cl)ccc3n2C)C(C)C)cn1 [Example 72] landed at 8.10

----------
- Assay System: UniProt Q14833
- Assay Text: Assay A: in vitro testing of mGluR4 potency (glutamate-induced cAMP lowering, HTRF cAMP)
- Conditions: HEK293 cells overexpressing human mGluR4; 10 uM L-glutamic acid, 1 uM forskolin; compounds of the present invention
I'd appreciate it if you marked entries 1.0 when IC50 is lower than 7 nM and 0.0 when it is not.

Observe how each entry below is paired with its result.
1) Cc1cnc(C(=O)N[C@H](c2nc3cc(Br)c(F)cc3n2C)C2CC2)cn1 ... 1.0
2) CCn1c([C@@H](NC(=O)c2cnc(C(F)F)cn2)C2CC2)nc2cc(F)ccc21 ... 1.0
3) CO[C@H](C)[C@H](NC(=O)c1cnc(C)cn1)c1nc2cc(OC(F)(F)F)ccc2n1CCOC1CC1 ... 1.0
4) COCCn1c([C@@H](NC(=O)c2cnc(C)cn2)[C@@H](C)OC(F)F)nc2cc(OC(F)F)ccc21 ... 0.0
5) COCCn1c(C(NC(=O)c2cnc(C)cn2)C2CCCO2)nc2cc(C(F)(F)F)ccc21 (stereo not drawn) [Example 71-3] ... 0.0
6) CCn1c([C@@H](NC(=O)c2cnc(C)cn2)[C@]2(O)CCCOC2)nc2cc(F)ccc21 ... 0.0
7) COCCn1c([C@@H](NC(=O)c2cnc(C)cn2)[C@@H](C)OC)nc2cc(OC(F)(F)F)ccc21 ... 1.0
8) CCn1c([C@@H](NC(=O)c2cnc(C)cn2)C(C)(C)O)nc2cc(F)ccc21 ... 0.0

Prompt line: # TODO verify IC50 < 7 nM strictly for this molecule: Cn1c(C(NC(=O)c2cnc(C(F)F)cn2)C2CCCO2)nc2cc(OC(F)(F)F)ccc21 (stereo not drawn)
Response line: 0.0

Prompt line: Regarding Cc1cnc(C(=O)N[C@H](c2nc3c(C)c(C#N)ccc3n2C)C2CC2)cn1 , kindly confirm whether its IC50 is beneath 7 nM.
Response line: 0.0
